Every entry's value here was drawn from patent US20030087827A1.

- tested.target: T1, recombinant truncated mouse furin (mouse, UniProt P23188 108-714, N-glycosylated at two of three potential sites)
- T1 construct: extracellular domain; Purified by ion exchange and gel permeation; also called recombinant furin; recombinant mouse furin
- T1 sequence (P23188 108-714): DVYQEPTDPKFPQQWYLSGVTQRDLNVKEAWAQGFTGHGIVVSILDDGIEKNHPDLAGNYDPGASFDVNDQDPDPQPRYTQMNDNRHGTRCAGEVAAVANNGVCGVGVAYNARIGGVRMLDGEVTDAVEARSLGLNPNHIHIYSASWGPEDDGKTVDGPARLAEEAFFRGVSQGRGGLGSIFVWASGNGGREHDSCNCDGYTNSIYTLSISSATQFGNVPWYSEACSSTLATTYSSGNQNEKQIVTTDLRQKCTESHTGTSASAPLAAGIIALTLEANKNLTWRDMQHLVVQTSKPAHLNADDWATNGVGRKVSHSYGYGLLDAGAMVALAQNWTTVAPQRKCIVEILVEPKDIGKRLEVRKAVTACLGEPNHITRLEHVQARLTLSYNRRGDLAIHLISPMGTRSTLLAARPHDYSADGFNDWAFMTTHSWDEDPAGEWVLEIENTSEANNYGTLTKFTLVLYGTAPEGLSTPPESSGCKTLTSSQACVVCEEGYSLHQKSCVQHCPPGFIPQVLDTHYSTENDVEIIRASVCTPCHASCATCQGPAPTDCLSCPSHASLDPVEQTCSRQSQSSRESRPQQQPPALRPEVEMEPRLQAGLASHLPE
- protocol.text: enzyme inhibition, pERTKR-MCA hydrolysis (fluorescence), competitive Ki
pKi: −log10 of the molar value.
Assign class by pKi: not lower than 7 means true; lower than 7 means false.

| binder | class.assignment |
| --- | --- |
| RRRRRRRRR (no terminal modifications; also called nonamer) [Nona-L-arginine] | true |

Query block: Textbook exercise: given the entry H-RRRR-OH (no terminal modifications; also called tetramer) [Tetra-L-arginine] , state whether its pKi is greater than or equal to 7.
Result block: false

Query block: Subsequent entry: RRRRR (no terminal modifications; also called pentamer; pentameric polyarginine) [Penta-L-arginine]
Result block: false
